# Test system: Human immunodeficiency virus 1
# ASSAY_OVERVIEW: Antiviral activity against HIV1 NL4-3 in human MT4 cells assessed as inhibition of virus-induced cytopathogenicity by MTT assay
# Format: functional, organism-based
# RUN_CONDITIONS: Human immunodeficiency virus 1, NL4-3, MT4
pEC50: −log10 of the molar value.
Parameter pEC50: see the listing below.
READOUT_TYPE: pEC50

compound=O=C(CSc1nc(Cc2c(Cl)cccc2Cl)cc(=O)[nH]1)c1ccc(F)cc1 readout_type=pEC50 recorded_measurement=6.11
compound="Cc1ccnc2c1NC(=O)c1cccnc1N2C1CC1 [NEVIRAPINE]" readout_type=pEC50 recorded_measurement=6.89
compound=O=c1cc(Cc2c(F)cccc2F)nc(SCc2c(F)cccc2F)[nH]1 readout_type=pEC50 recorded_measurement=6.00
compound=CCc1c(Cc2c(Cl)cccc2Cl)nc(SCC(=O)c2ccc(F)cc2)[nH]c1=O readout_type=pEC50 recorded_measurement=8.15
compound=Cc1ccc(CSc2nc(Cc3c(F)cccc3F)c(C)c(=O)[nH]2)c(C)c1 readout_type=pEC50 recorded_measurement=6.40
compound=O=C(CSc1nc(Cc2c(F)cccc2F)cc(=O)[nH]1)c1ccc([N+](=O)[O-])cc1 readout_type=pEC50 recorded_measurement=5.08
compound=CC(C)c1c(Cc2c(F)cccc2F)nc(SCC(=O)c2ccccc2)[nH]c1=O readout_type=pEC50 recorded_measurement=8.70
compound=CC(C)c1c(Cc2c(Cl)cccc2Cl)nc(SCC(=O)c2ccc(F)cc2)[nH]c1=O readout_type=pEC50 recorded_measurement=7.19
compound=COc1ccc(C(=O)CSc2nc(Cc3c(F)cccc3F)c(C(C)C)c(=O)[nH]2)cc1 readout_type=pEC50 recorded_measurement=8.70
compound=CC(C)c1c(Cc2c(F)cccc2Cl)nc(SCC(=O)c2ccc(F)cc2)[nH]c1=O readout_type=pEC50 recorded_measurement=8.40
